Test system: Myzus persicae
assay_overview: Myzus persicae - spray test (MYZUPE)
Assay type: in vivo
cond: 500 g/ha, Chinese cabbage leaf discs, after 5-6 days
Protocol: Myzus persicae—Spray Test Solvents: 78 parts by weight of acetone • • 1.5 parts by weight of dimethylformamide Emulsifier: alkylaryl polyglycol ether After 5-6 days, the efficacy in % is determined. 100% means that all the aphids have been killed; 0% means that no aphids have been killed. Myzus persicae—Spray Test (MYZUPE) Solvents: 78.0 parts by weight of acetone • • 1.5 parts by weight of dimethylformamide After the desired period of time (dat), the efficacy in % is determined. […]
metric_name: efficacy (aphids killed) (%)
Record the value in %, omitting the unit from your answer.

Below are worked cases with known answers.
[
  {
    "molecule": "CSc1ccn(-c2ncc(C(=O)N(C)c3cccnc3)n2C)n1 [I-1-012]",
    "reported_measurement": 90
  },
  {
    "molecule": "CN(C(=O)c1cnc(N2CCC(c3ccccc3)CC2)n1C)c1cccnc1 [I-1-018]",
    "reported_measurement": 100
  },
  {
    "molecule": "CN(C(=O)c1cnc(N2CCCC2)n1C)c1cccnc1 [I-1-019]",
    "reported_measurement": 100
  },
  {
    "molecule": "CN(C(=O)c1cnc(-n2cc(Cl)cn2)n1C)c1cccnc1 [I-1-005]",
    "reported_measurement": 90
  },
  {
    "molecule": "CN(C(=O)c1cnc(N2CCCCC2)n1C)c1cccnc1 [I-1-013]",
    "reported_measurement": 100
  },
  {
    "molecule": "CN(C(=O)c1cnc(-n2ccc(C#N)n2)n1C)c1cccnc1 [I-1-003]",
    "reported_measurement": 90
  },
  {
    "molecule": "CSc1ncn(-c2ncc(C(=O)N(C)c3cccnc3)n2C)n1 [I-1-011]",
    "reported_measurement": 100
  },
  {
    "molecule": "CC1CC(C)CN(c2ncc(C(=O)N(C)c3cccnc3)n2C)C1 (stereo not shown) [I-1-020]",
    "reported_measurement": 100
  }
]

Qu. Specify reported efficacy (aphids killed) for the molecule shown: CN(C(=O)c1cnc(-n2cc(C#N)cn2)n1C)c1cccnc1 [I-1-008]
Ans. 100

Qu. Specify reported efficacy (aphids killed) for the molecule shown: CCN(C(=O)c1cnc(-n2cc(C(F)(F)F)cn2)n1C)c1cccnc1 [I-1-014]
Ans. 90

Qu. Specify reported efficacy (aphids killed) for the molecule shown: Cc1cnn(-c2ncc(C(=O)N(C)c3cccnc3)n2C)c1 [I-1-021]
Ans. 100

Qu. Specify reported efficacy (aphids killed) for the molecule shown: CN(C(=O)c1cnc(-n2cccn2)n1C)c1cccnc1 [I-1-002]
Ans. 90

Qu. Specify reported efficacy (aphids killed) for the molecule shown: CC1CCN(c2ncc(C(=O)N(C)c3cccnc3)n2C)CC1 [I-1-016]
Ans. 90

Source listed as patent US10501441B2.
